# experimentSummary: Rat PO PK study, Method B
# Assay type: in vivo, male Sprague Dawley (SD) rats
# experimentalSetup: male, Sprague Dawley, plasma, 10 mg/kg, 10% solutol HS 15
resultType: AUC
Please provide the amount together with its unit, number first.

Query: Read off the recorded AUC for Cc1cc(-n2nc3c(c2-n2ccn(-c4ccc5c(cnn5C)c4F)c2=O)[C@H](C)N(C(=O)c2cc4cc([C@H]5CCOC(C)(C)C5)ccc4n2[C@@]2(c4noc(=O)[nH]4)C[C@@H]2C)CC3)cc(C)c1F [Compound C-5, reference compound]
Result: 14500 ng·h/mL

====

Listed compounds paired with reported Cmax
# experimentSummary: Rat IV/PO PK study, Method A
# Assay type: in vivo, male Sprague Dawley (SD) rats
# experimentalSetup: male, Sprague Dawley, plasma, PO, 5 mg/kg, *obtained under method 3A
Please provide the amount together with its unit, number first.

Consider the following illustrative entries.
[
  {
    "compound": "Cc1cc(-n2nc3c(c2-n2ccn(-c4ccc5c(cnn5C)c4F)c2=O)[C@H](C)N(C(=O)c2cc4cc([C@H]5CCOC(C)(C)C5)ccn4c2C2(c4noc(=O)[nH]4)CC2)CC3)cc(C2CC2)c1F [Compound C-6, reference compound]",
    "Cmax": "744 ng/mL"
  },
  {
    "compound": "CCS(=O)(=NC)c1ccc(-n2ccn(-c3c4c(nn3-c3cc(C)c(F)c(C)c3)CCN(C(=O)c3cc5cc([C@H]6CCOC(C)(C)C6)ccc5n3[C@@]3(c5noc(=O)[nH]5)C[C@@H]3C)[C@H]4C)c2=O)c(F)c1 (single isomer, unassigned)",
    "Cmax": "1880 ng/mL"
  },
  {
    "compound": "CN=S(=O)(c1ccc(-n2ccn(-c3c4c(nn3-c3cc(C)c(F)c(C)c3)CCN(C(=O)c3cc5cc([C@H]6CCOC(C)(C)C6)ccc5n3[C@@]3(c5noc(=O)[nH]5)C[C@@H]3C)[C@H]4C)c2=O)c(F)c1)C1CC1 (single isomer, unassigned)",
    "Cmax": "1790 ng/mL"
  },
  {
    "compound": "CN=S(=O)(c1ccc(-n2ccn(-c3c4c(nn3-c3cc(C)c(F)c(C)c3)CCN(C(=O)c3cc5cc([C@H]6CCOC(C)(C)C6)ccc5n3[C@@]3(c5noc(=O)[nH]5)C[C@@H]3C)[C@H]4C)c2=O)c(F)c1C)C1CC1 (single isomer, unassigned)",
    "Cmax": "774 ng/mL"
  }
]

Next compound, please.
Query: Read off the recorded Cmax for CN=S(=O)(c1ccc(-n2ccn(-c3c4c(nn3-c3cc(C)c(F)c(C)c3)CCN(C(=O)c3cc5cc([C@H]6CCOC(C)(C)C6)ccc5n3[C@@]3(c5noc(=O)[nH]5)C[C@@H]3C)[C@H]4C)c2=O)c(F)c1NC)C1CC1 (single isomer, unassigned)
Result: 1060 ng/mL

====

# testSystem: GLP-1 Receptor (Homo sapiens)
# Sequence (P43220 24-463, species assumed): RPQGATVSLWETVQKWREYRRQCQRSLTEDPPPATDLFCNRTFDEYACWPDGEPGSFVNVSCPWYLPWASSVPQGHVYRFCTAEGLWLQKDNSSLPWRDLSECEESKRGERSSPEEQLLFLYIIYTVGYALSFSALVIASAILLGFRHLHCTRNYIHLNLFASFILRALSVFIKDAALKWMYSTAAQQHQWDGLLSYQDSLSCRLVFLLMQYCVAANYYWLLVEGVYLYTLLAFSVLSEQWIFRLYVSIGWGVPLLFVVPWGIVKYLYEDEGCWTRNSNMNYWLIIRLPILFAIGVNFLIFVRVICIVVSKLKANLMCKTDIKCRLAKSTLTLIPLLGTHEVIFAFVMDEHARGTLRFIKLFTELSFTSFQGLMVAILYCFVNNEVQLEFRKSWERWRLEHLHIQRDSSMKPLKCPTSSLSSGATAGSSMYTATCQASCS
# experimentSummary: GLP-1R agonist cAMP stimulation assay (HEK293/GLP1R/CRE-LUC cells, Cisbio cAMP dynamic 2 kit)
# Format: cell-based
# experimentalSetup: Table 3, HEK293/GLP1R/CRE-LUC cells, 30 min
# Description: Activation of GLP-1 receptor is known to stimulate cyclic AMP (cAMP) production in cells which indicates primary coupling to the G as subunit of the G protein heterotrimeric complex. […] After incubation the cAMP assay signal was generated using cAMP dynamic 2 Kit (Cisbio). […] Read the fluorescence at 665 and 615 nm with Reader PerkinElmer EnVision. % oActivity=100%×(mean RLU of test sample−mean RLU of vehicle control)/(mean RLU of MAX control−mean RLU of vehicle control)
Listed compounds paired with reported EC50

Consider the following illustrative entries.
[
  {
    "compound": "CN=S(C)(=O)c1ccc(-n2ccn(-c3c4c(nn3-c3cc(C)c(F)c(C)c3)CCN(C(=O)c3cc5cc(C6CCOCC6)ccc5n3[C@@]3(c5noc(=O)[nH]5)C[C@@H]3C)[C@H]4C)c2=O)cc1 (single isomer, unassigned) [Compound 121]",
    "testSystem": "GLP-1 Receptor (Homo sapiens)",
    "EC50": "0.019 nM"
  },
  {
    "compound": "Cc1cc(-n2nc3c(c2-n2ccn(-c4ccc5c(c4F)CN=S5(C)=O)c2=O)[C@H](C)N(C(=O)c2cc4cc([C@H]5CCOC(C)(C)C5)ccc4n2[C@@]2(c4noc(=O)[nH]4)C[C@@H]2C)CC3)cc(C)c1F (single isomer, unassigned) [Compound 187]",
    "testSystem": "GLP-1 Receptor (Homo sapiens)",
    "EC50": "0.01 nM"
  },
  {
    "compound": "CC1=Cc2cc(-n3ccn(-c4c5c(nn4-c4cc(C)c(F)c(C)c4)CCN(C(=O)c4cc6cc([C@H]7CCOC(C)(C)C7)ccc6n4[C@@]4(c6noc(=O)[nH]6)C[C@@H]4C)[C@H]5C)c3=O)ccc2S(C)(=O)=N1 (single isomer, unassigned) [Compound 206]",
    "testSystem": "GLP-1 Receptor (Homo sapiens)",
    "EC50": "0.02 nM"
  }
]

Query: Read off the recorded EC50 for Cc1cc(-n2nc3c(c2-n2ccn(-c4ccc5c(c4F)CCN=S5(=O)C4CC4)c2=O)[C@H](C)N(C(=O)c2cc4cc([C@H]5CCOC(C)(C)C5)ccc4n2[C@@]2(c4noc(=O)[nH]4)C[C@@H]2C)CC3)cc(C)c1F (single isomer, unassigned) [Compound 197]
Result: 0.018 nM

Data credit: patent US12291529B2
